Tested on: CAMK1D;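 further: KINOMEscan kinase panel screen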
Settings: concentration: 1 μM, replicates: in singlicate; n = 1
Range-based classes on measured %Inh: bin 0 (below 4%), bin 1 (4% to below 20%), bin 2 (20% or more)

molecule=FC(F)(F)c1ccc(/C=C/c2cncnc2Nc2ccc3[nH]c(Cc4ccccc4)nc3c2)cc1 measurementtarget=CAMK1D assignedlabel="bin 1"
molecule=CC(C)(C)c1ccc2nccc(Nc3cccc(O)c3)c2c1 measurementtarget=CAMK1D assignedlabel="bin 1"
molecule="Cl.Cl.NCC(C(=O)Nc1cc(Br)c(-c2ccnc3[nH]ccc23)s1)c1ccccc1 (centres unmarked)" measurementtarget=CAMK1D assignedlabel="bin 0"
molecule=Cl.NC(=O)c1cccc(Nc2nccc(Nc3ccc(Oc4c(Cl)cccc4Cl)c(Cl)c3)n2)c1 measurementtarget=CAMK1D assignedlabel="bin 0"
molecule=COc1cc(Nc2nccc(-c3c(-c4cccc(NC(=O)c5c(F)cccc5F)c4)nn4ncccc34)n2)cc(OC)c1OC measurementtarget=CAMK1D assignedlabel="bin 1"
molecule=Cn1cc(-c2[nH]c3cc(NC(=O)[C@H](N)C4CCCCC4)cc4c3c2C=NNC4=O)cn1 measurementtarget=CAMK1D assignedlabel="bin 2"
molecule=O=C(Nc1n[nH]c2cc(-c3ccoc3)ccc12)C1CC1 measurementtarget=CAMK1D assignedlabel="bin 0"
molecule=CCCCc1nn2ncccc2c1-c1ccnc(Nc2ccc(N3CCN(C)CC3)cc2)n1 measurementtarget=CAMK1D assignedlabel="bin 0"
molecule=Cc1cccc(Nc2nc(N[C@H]3CCNC3)ncc2C(N)=O)c1.Cl measurementtarget=CAMK1D assignedlabel="bin 2"
molecule=Cc1ccc(C(=O)N2CC[C@@H](O)C2)cc1-n1c(C)cc(OCc2ccc(F)cc2F)c(Br)c1=O measurementtarget=CAMK1D assignedlabel="bin 1"
molecule=O=C(Nc1cccc(-c2nn3ncccc3c2-c2ccnc(Nc3ccccc3)n2)c1)c1c(F)cccc1F measurementtarget=CAMK1D assignedlabel="bin 2"
molecule=O=C(Nc1cccc(-c2nn3ccccc3c2-c2ccnc(Nc3cccc(C(F)(F)F)c3)n2)c1)c1c(F)cccc1F measurementtarget=CAMK1D assignedlabel="bin 0"
molecule="Cl.Cl.NCC(NCc1ccc(-c2ccnc3[nH]ccc23)s1)c1ccccc1 (centres unmarked)" measurementtarget=CAMK1D assignedlabel="bin 1"
molecule=CCn1c(-c2nonc2N)nc2c(C#CC(C)(C)O)nc(OC[C@H](N)c3ccccc3)cc21 measurementtarget=CAMK1D assignedlabel="bin 1"
molecule="O=C(NC1CCN(c2ccnc(Nc3ccc(F)cc3)n2)C1)c1cc2ccccc2s1 (centres unmarked)" measurementtarget=CAMK1D assignedlabel="bin 1"
molecule=O=C(Nc1cccc(Oc2ccc3nc(NC(=O)C4CC4)cn3n2)c1)c1ccccc1C(F)(F)F measurementtarget=CAMK1D assignedlabel="bin 0"
molecule=Cc1ccc(S(=O)(=O)Nc2ccc(Nc3nccc(Nc4cccc5[nH]ncc45)n3)cc2)cc1 measurementtarget=CAMK1D assignedlabel="bin 1"
molecule=O=c1[nH]cc(-c2ccc(N3CCOCC3)cc2)c2sc(-c3cn[nH]c3)cc12 measurementtarget=CAMK1D assignedlabel="bin 2"
molecule=CC(=O)Nc1nc2cnc(Nc3cc(NC(=O)c4cccc(C5(C#N)CC5)c4Cl)ccc3C)nc2s1 measurementtarget=CAMK1D assignedlabel="bin 2"
